# Tested on: microbiota present in the faecal samples
# assay-name: Faecal fermentation, distribution of oligosaccharides (HPAEC-PAD peak areas)
# experimental-context: Example 2 sample, 48 h, Donor B
outcome-measure: Peak areas

* OC[C@H]1O[C@@H](O[C@H]2[C@@H](O)[C@@H](CO)O[C@@H](O[C@H]3[C@@H](O)[C@@H](CO)O[C@@H](O[C@H]4[C@H](O)[C@@H](O)C(O)O[C@@H]4CO)[C@@H]3O)[C@@H]2O)[C@H](O)[C@@H](O)[C@H]1O (stereo partly shown) [Cpd. ID 31] | 0.0

P. OC[C@H]1O[C@@H](O[C@H]2[C@@H](O)[C@@H](CO)O[C@@H](O[C@H]3C(O)O[C@H](CO)[C@@H](O)[C@@H]3O)[C@@H]2O)[C@H](O)[C@@H](O)[C@H]1O (stereo partly drawn) [Cpd. ID 30, D-Gal-(β1-3)-D-Gal-(β1-2)-D-Glu]
Q. OC[C@H]1O[C@@H](O[C@@H]2[C@H](O)[C@@H](O)[C@H](O[C@H]3[C@H](O)[C@@H](O)C(O)O[C@@H]3CO)O[C@@H]2CO)[C@H](O)[C@@H](O)[C@H]1O (stereo partly drawn) [Cpd. ID 11, D-Gal-(β1-4)-D-Gal-(β1-4)-D-Glu]
R. OC[C@H]1O[C@@H](O[C@H]2[C@@H](O)[C@@H](CO)O[C@@H](O[C@H]3[C@H](O)[C@@H](O)C(O)O[C@@H]3CO)[C@@H]2O)[C@H](O)[C@@H](O)[C@H]1O (stereo partly drawn) [Cpd. ID 12, D-Gal-(β1-3)-D-Gal-(β1-4)-D-Glu]
### Prompt Write the entries in order, lowest recorded Peak areas first. # list labels per requested ordering
### Response P, R, Q

Source: patent US20250197436A1
